biological target: IDH1 R132H (Homo sapiens (Human), UniProt O75874, R132H); experiment: Assays for IDH1 R132H Inhibitors (NADPH/aKG, resazurin detection); type: biochemical; settings: IDH1 R132H enzyme, Table 2; read-out: IDHR132H Activity
Sequence (O75874 whole entry R132H): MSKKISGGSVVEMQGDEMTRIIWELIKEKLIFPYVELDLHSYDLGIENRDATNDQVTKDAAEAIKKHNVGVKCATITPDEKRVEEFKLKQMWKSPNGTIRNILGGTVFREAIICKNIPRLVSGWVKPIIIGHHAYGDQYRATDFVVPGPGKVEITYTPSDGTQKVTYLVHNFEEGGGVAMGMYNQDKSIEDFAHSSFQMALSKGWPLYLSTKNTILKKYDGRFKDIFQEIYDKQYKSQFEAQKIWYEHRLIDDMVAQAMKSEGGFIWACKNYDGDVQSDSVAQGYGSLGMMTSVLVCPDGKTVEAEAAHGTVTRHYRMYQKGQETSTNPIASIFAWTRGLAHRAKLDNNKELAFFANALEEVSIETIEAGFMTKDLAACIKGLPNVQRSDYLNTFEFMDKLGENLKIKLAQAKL
READOUT KIND: IC50

[
  {
    "MOLECULE": "CCS(=O)(=O)N1CCN(c2nc(C3CC3)c3c(c2C#N)CC(C)(C)OC3)C[C@H]1C(C)C [Compound 391]",
    "MEASURED": "1 to 10 µM"
  },
  {
    "MOLECULE": "Cc1cc(C(=O)N2CCN(c3nc(C4CCCCC4)c4c(c3C#N)CCOC4)CC2)c(C)o1 [Compound 121]",
    "MEASURED": "1 to 10 µM"
  },
  {
    "MOLECULE": "CC(C)c1nc(N2CCN(C(=O)c3ccc(Cl)c(Cl)c3)CC2)c(C#N)c2c1COCC2 [Compound 105]",
    "MEASURED": "1 to 10 µM"
  },
  {
    "MOLECULE": "CC[C@@H]1CN(c2nc(C3CC3)c3c(c2C#N)CC(C)(C)OC3)CCN1C(=O)CCOC [Compound 297]",
    "MEASURED": "< 0.5 µM"
  },
  {
    "MOLECULE": "CC(C)[C@@H]1CN(c2nc(C3CC3)c3c(c2C#N)CC(C)(C)OC3)CCN1S(=O)(=O)c1ccc(Cl)s1 [Compound 285]",
    "MEASURED": "1 to 10 µM"
  },
  {
    "MOLECULE": "CCOc1ccc(NC(=O)N2CCN(c3nc(C4CC4)c4c(c3C#N)CC(C)(C)OC4)C[C@H]2C(C)C)cc1 [Compound 282]",
    "MEASURED": "1 to 10 µM"
  },
  {
    "MOLECULE": "CCOC(=O)C1CN(c2nc(C3CCCCC3)c3c(c2C#N)CCOC3)CCN1C(=O)CCOC (stereo not drawn) [Compound 278]",
    "MEASURED": "1 to 10 µM"
  },
  {
    "MOLECULE": "N#Cc1c(N2CCN(C(=O)c3cccc4[nH]ccc34)CC2)nc(C2CCCCC2)c2c1CCOC2 [Compound 119]",
    "MEASURED": "1 to 10 µM"
  },
  {
    "MOLECULE": "CC(C)[C@@H]1CN(c2nc(C3CC3)c3c(c2C#N)CC(C)(C)OC3)CCN1C(=O)NC1CC1 [Compound 398]",
    "MEASURED": "1 to 10 µM"
  },
  {
    "MOLECULE": "Cc1ccc(NC(=O)N2CCN(c3nc(C4CC4)c4c(c3C#N)CC(C)(C)OC4)C[C@H]2C(C)C)cc1 [Compound 301]",
    "MEASURED": "1 to 10 µM"
  },
  {
    "MOLECULE": "COc1ccc(OC(=O)N2CCN(c3nc(C(C)C)c4c(c3C#N)CCOC4)CC2)cc1 [Compound 103]",
    "MEASURED": "1 to 10 µM"
  },
  {
    "MOLECULE": "CC1(C)Cc2c(C#N)c(N3CCN(C(=O)c4ccco4)C(C)(C)C3)nc(C3CC3)c2CO1 [Compound 319]",
    "MEASURED": "1 to 10 µM"
  },
  {
    "MOLECULE": "CC(C)c1nc(N2CCN(C(=O)c3ccc(Cl)cc3Cl)CC2)c(C#N)c2c1COCC2 [Compound 106]",
    "MEASURED": "1 to 10 µM"
  },
  {
    "MOLECULE": "CC(C)c1nc(N2CCN(C(=O)c3ccco3)[C@H](C)C2)c(C#N)c2c1COC(C)(C)C2 [Compound 148]",
    "MEASURED": "1 to 10 µM"
  },
  {
    "MOLECULE": "C[C@@H]1CN(c2nc(C3CCCCC3)c3c(c2C#N)CCOC3)CCN1C(=O)OCc1ccccc1 [Compound 343]",
    "MEASURED": "1 to 10 µM"
  },
  {
    "MOLECULE": "CCCOCC(=O)N1CCN(c2nc(C3CC3)c3c(c2C#N)CC(C)(C)OC3)C[C@H]1C(C)C [Compound 381]",
    "MEASURED": "0.5 to 1 µM"
  },
  {
    "MOLECULE": "CC(C)c1nc(N2CCN(C(=O)c3ccco3)CC2)c(C#N)c2c1CC(C)(C)CC2 [Compound 116]",
    "MEASURED": "1 to 10 µM"
  },
  {
    "MOLECULE": "C[C@@H]1CN(c2nc(C3CCCCC3)c3c(c2C#N)CCOC3)CCN1C(=O)c1ccco1 [Compound 162]",
    "MEASURED": "1 to 10 µM"
  },
  {
    "MOLECULE": "CC(C)[C@@H]1CN(c2nc(C3CC3)c3c(c2C#N)CC(C)(C)OC3)CCN1C(=O)Cn1cccn1 [Compound 325]",
    "MEASURED": "0.5 to 1 µM"
  },
  {
    "MOLECULE": "Cc1ccoc1C(=O)N1CCN(c2nc(C3CCCCC3)c3c(c2C#N)CCOC3)CC1 [Compound 129]",
    "MEASURED": "1 to 10 µM"
  },
  {
    "MOLECULE": "COCCC(=O)N1CCN(c2nc(C3CCCCC3)c3c(c2C#N)CCOC3)C[C@H]1C [Compound 240]",
    "MEASURED": "1 to 10 µM"
  },
  {
    "MOLECULE": "CCCNC(=O)N1CCN(c2nc(C3CC3)c3c(c2C#N)CC(C)(C)OC3)C[C@H]1C(C)C [Compound 350]",
    "MEASURED": "1 to 10 µM"
  },
  {
    "MOLECULE": "CC(C)[C@@H]1CN(c2nc(C3CC3)c3c(c2C#N)CC(C)(C)OC3)CCN1C(=O)c1cccnc1 [Compound 271]",
    "MEASURED": "1 to 10 µM"
  },
  {
    "MOLECULE": "CC(C)c1nc(N2CCN(C(=O)Cc3cccs3)[C@H](C)C2)c(C#N)c2c1COC(C)(C)C2 [Compound 158]",
    "MEASURED": "0.5 to 1 µM"
  },
  {
    "MOLECULE": "N#Cc1c(N2CCN(C(=O)c3ccco3)CC2)nc(C2CCCCC2)c2c1CCOC2 [Compound 110]",
    "MEASURED": "1 to 10 µM"
  },
  {
    "MOLECULE": "CCNC(=O)N1CCN(c2nc(C3CCCCC3)c3c(c2C#N)CCOC3)C[C@H]1C [Compound 335]",
    "MEASURED": "1 to 10 µM"
  },
  {
    "MOLECULE": "CC[C@@H]1CN(c2nc(C3CC3)c3c(c2C#N)CC(C)(C)OC3)CCN1C(=O)Cc1cccnc1 [Compound 294]",
    "MEASURED": "0.5 to 1 µM"
  },
  {
    "MOLECULE": "COc1ccc(OC(=O)N2CCN(c3nc(C4CC4)c4c(c3C#N)CC(C)(C)OC4)C[C@H]2C(C)C)cc1 [Compound 337]",
    "MEASURED": "1 to 10 µM"
  },
  {
    "MOLECULE": "Cc1ccc(S(=O)(=O)N2CCN(c3nc(C4CC4)c4c(c3C#N)CC(C)(C)OC4)C[C@H]2C(C)C)cc1 [Compound 302]",
    "MEASURED": "1 to 10 µM"
  },
  {
    "MOLECULE": "CC(C)[C@@H]1CN(c2nc(C3CCC3)c3c(c2C#N)CC(C)(C)OC3)CCN1C(=O)c1ccoc1 [Compound 288]",
    "MEASURED": "< 0.5 µM"
  }
]
